# pIC50 per entry
TARGET: CXCR2 (Homo sapiens, UniProt P25025)
Construct: expressed in transfected cells
Sequence (P25025 whole entry): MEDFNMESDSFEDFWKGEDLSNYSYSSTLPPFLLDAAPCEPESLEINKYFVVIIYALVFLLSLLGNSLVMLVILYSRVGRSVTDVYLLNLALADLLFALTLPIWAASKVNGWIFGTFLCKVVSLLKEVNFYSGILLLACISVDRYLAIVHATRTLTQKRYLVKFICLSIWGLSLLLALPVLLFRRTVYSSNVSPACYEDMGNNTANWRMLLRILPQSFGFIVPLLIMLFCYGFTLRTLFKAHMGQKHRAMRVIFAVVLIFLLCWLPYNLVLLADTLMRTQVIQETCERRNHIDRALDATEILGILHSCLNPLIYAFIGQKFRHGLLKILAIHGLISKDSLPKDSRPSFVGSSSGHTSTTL
PROCEDURE DETAILS: NanoBRET-based G protein activation inhibition assay (REGA-SIGN Gαi1 dissociation) in HEK293A.CXCR2 cells
Assay type: cell-based
CONDITION NOTES: CXCL2 at EC80; mean, n = 3
pIC50: −log10 of the molar value.

Below: 3 compounds and their reported pIC50.
{"columns": ["COMPOUND", "TARGET", "EXPERIMENTAL VALUE"],
 "data": [
  ["CC(CO)Nc1nc(SCc2cccc(F)c2F)nc2cnccc12 (stereo not drawn)", "CXCR2 (Homo sapiens, UniProt P25025)", 5.20],
  ["CC(CO)Nc1nc(SCc2cccc(F)c2F)nc2ncsc12 (stereo not drawn)", "CXCR2 (Homo sapiens, UniProt P25025)", "< 4.82"],
  ["CC(CO)Nc1nc(SCc2cccc(F)c2F)nc2[nH]cnc12 (stereo not drawn)", "CXCR2 (Homo sapiens, UniProt P25025)", "< 4.82"]
]}

Lookup: Record lookup: for CXCR2 (Homo sapiens, UniProt P25025), what pIC50 belongs to CCCC(C)CSc1nc(NC(C)CO)c2nn[nH]c2n1 (stereo not drawn) ?
Found: < 4.82

Lookup: Lab note: need pIC50 with CXCR2 (Homo sapiens, UniProt P25025) for entry CC(CO)Nc1nc(SCc2cccc(F)c2F)nc2oncc12 (stereo not drawn) , please look it up.
Found: 5.92

Lookup: Item CC(CCO)Nc1nc(SCc2cccc(F)c2F)nc2[nH]nnc12 (stereo not drawn) with CXCR2 (Homo sapiens, UniProt P25025) - pIC50?
Found: < 4.82

The origin of these recorded values is paper PMC12301332.
